Record form. Attribute: Population Hoechst High Intensity Objects (%). Fill in for each entry.
# System: Fibroblast
# assay_protocol: Multiplex assay against human fibroblast
# Assay type: toxicity, cell-based
# condition_info: 24 h, 10 µM, compound concentration 10 uM, replicate 1
Give the value in % but do not write % after it.

Which Population Hoechst High Intensity Objects (%) value is on record for Cc1cccc(NC(=O)CN2CCC(c3ccccn3)CC2)c1.Cl.Cl ?
7

Give the measured Population Hoechst High Intensity Objects (%) of Cl.NCCc1ccc(O)c(O)c1 [DOPAMINE HYDROCHLORIDE] .
2

Endpoint output: Population Hoechst High Intensity Objects (%) of NCCc1cn(S(=O)(=O)c2c(Cl)nc3sccn23)c2ccccc12.O=C(O)C(=O)O . Value?
3

Quick one: Population Hoechst High Intensity Objects (%) for CCCCC1=NC2(CCCC2)C(=O)N1Cc1ccc(-c2ccccc2-c2nnn[nH]2)cc1 [IRBESARTAN] ?
1

Consider the molecule CN[C@@H](C)C(=O)N[C@H](C(=O)N1CCC[C@H]1C(=O)Nc1snnc1-c1ccccc1)C1CCCCC1 [GDC-0152] and give its measured Population Hoechst High Intensity Objects (%).
5

Which Population Hoechst High Intensity Objects (%) is listed for CC(/C=C1\SC(=S)N(CCCC(=O)Nc2ccc(C(=O)O)c(O)c2)C1=O)=C\c1ccccc1 ?
0

Endpoint output: Population Hoechst High Intensity Objects (%) of Cc1noc(-c2ccc(-c3ccc(CC(=O)O)cc3)cc2)c1NC(=O)O[C@H](C)c1ccccc1Cl . Value?
1

What value of measured Population Hoechst High Intensity Objects (%) is listed for CN(C)C(=O)Cn1cc(-c2ccc(-c3cncc4ccccc34)cc2)cn1 ?
8

I'd like to know its Population Hoechst High Intensity Objects (%). The molecule in question is CCc1cc2cc(NS(=O)(=O)c3ccc(C#N)cc3)ccc2n(CC)c1=O
2

Would you kindly share the measured Population Hoechst High Intensity Objects (%) for O=C(NCCN1CCC(n2c(=O)[nH]c3cc(Cl)ccc32)CC1)c1ccc(F)cc1 [HALOPEMIDE] ?
5

May I ask what Population Hoechst High Intensity Objects (%) has been recorded for COc1cccc2c1c(NS(=O)(=O)c1ccc(Cl)s1)nn2Cc1cccc(CNC(=O)C(C)(C)O)c1 ?
2

Could you tell me which Population Hoechst High Intensity Objects (%) is on file for Cc1c(CC(=O)O)c2cccnc2n1Cc1ccc(S(C)(=O)=O)cc1C(F)(F)F [FEVIPIPRANT] ?
1

Requested field: Population Hoechst High Intensity Objects (%). Item: Cl.N=C(N)NC(=O)Cc1c(Cl)cccc1Cl [GUANFACINE HYDROCHLORIDE]
1

Would you kindly share the measured Population Hoechst High Intensity Objects (%) for CCCOc1ccc2[nH]cc(C3=CCNCC3)c2n1.Cl ?
1

Need Population Hoechst High Intensity Objects (%), item CCCCCC(O)/C=C/[C@H]1C(=O)CC(O)C1C/C=C\CCCC(=O)O (some centres undefined)
2

For C[C@H](N)COC(=O)[C@@H](CCCCN)NC(=O)Cc1c(-c2ccc3ccccc3c2)[nH]c2c1ccc1ccccc12 , what is its reported Population Hoechst High Intensity Objects (%)?
7

Any idea what Population Hoechst High Intensity Objects (%) was measured for O=C1[C@H](Cc2ccc(O)cc2)N2C(=O)CCN(C(=O)NCc3ccccc3)[C@H]2CN1Cc1cccc2ccccc12 ?
10

So what's the measured Population Hoechst High Intensity Objects (%) for this one? O=C(CCCc1ccccc1)Nc1nc2ccccc2c(=O)s1
5

What Population Hoechst High Intensity Objects (%) value was documented for this molecule, CC[C@@H](C)Nc1nc(C)nc2c(-c3ccc(OC)nc3C)c(C)nn12 [PEXACERFONT] ?
1

This collection of values is drawn from ChEMBL document CHEMBL5058577.
